- PROTOCOL_NOTES: Clearance in Han Wistar rat at 4.7 umol/kg, iv
- Type: ADME, organism-based
- CONDITION_PARAMETERS: in vivo
MEASURED_METRIC: clearance (mL/min/kg)

I = O=C(N[C@H]1C2CC3CC1C[C@](O)(C3)C2)c1cnc(NC2CCOCC2)nc1C1CCC1
II = O=C(N[C@H]1C2CC3CC1C[C@](O)(C3)C2)c1cnc(N[C@H]2CCOC2)nc1C1CCCC1
### Prompt Could you please tell me which of these two has the higher clearance: I or II ? Lab log: write the label of the selected item as the result.
### Response I

###

- PROTOCOL_NOTES: Intrinsic clearance in mouse hepatocytes measured per 10^6 cells
- Type: ADME, cell-based, Hepatocyte
- CONDITION_PARAMETERS: read-out: CLH
MEASURED_METRIC: hepatocyte CLint (µL/min/1e6 cells)

I = O=C(N[C@H]1C2CC3CC1C[C@](O)(C3)C2)c1cnc(NC2CCOCC2)nc1C1CCC1
II = O=C(N[C@H]1C2CC3CC1C[C@](O)(C3)C2)c1cnc(N[C@H]2CCOC2)nc1C1CCCC1
### Prompt # min-compare on hepatocyte CLint between I and II Lab log: write the label of the selected item as the result.
### Response I

###

- PROTOCOL_NOTES: Oral bioavailability in Han Wistar rat at 11.7 umol/kg
- Format: ADME, organism-based
- CONDITION_PARAMETERS: in vivo
MEASURED_METRIC: bioavailability (%)
Numeric only. Scale: %

### Prompt Entry under review: O=C(N[C@H]1C2CC3CC1C[C@](O)(C3)C2)c1cnc(NC2CCOCC2)nc1C1CCC1 . Reported bioavailability?
### Response 100

###

- PROTOCOL_NOTES: Half life in male beagle dog at 1 umol/kg, iv
- Type: ADME, organism-based, Canis lupus familiaris
- CONDITION_PARAMETERS: in vivo
MEASURED_METRIC: half-life (min)
Numeric only. Scale: min

### Prompt Entry under review: O=C(N[C@H]1C2CC3CC1C[C@](O)(C3)C2)c1cnc(NC2CCOCC2)nc1C1CCC1 . Reported half-life?
### Response 48

###

- PROTOCOL_NOTES: Intrinsic clearance in female beagle dog hepatocytes measured per 10^6 cells
- Format: ADME, cell-based, Canis lupus familiaris, Hepatocyte
- CONDITION_PARAMETERS: read-out: CLH
MEASURED_METRIC: hepatocyte CLint (µL/min/1e6 cells)
Numeric only. Scale: µL/min/1e6 cells

### Prompt Entry under review: O=C(N[C@H]1C2CC3CC1C[C@](O)(C3)C2)c1cnc(N[C@H]2CCOC2)nc1C1CCCC1 . Reported hepatocyte CLint?
### Response 6.7

###

- PROTOCOL_NOTES: Fraction unbound in human plasma
- Assay type: ADME, cell-free
MEASURED_METRIC: fraction unbound

structure_smiles=O=C(N[C@H]1C2CC3CC1C[C@](O)(C3)C2)c1cnc(NC2CCOCC2)nc1C1CCC1 reported_measurement=0.52
structure_smiles=O=C(N[C@H]1C2CC3CC1C[C@](O)(C3)C2)c1cnc(N[C@H]2CCOC2)nc1C1CCCC1 reported_measurement=0.38

###

- PROTOCOL_NOTES: Volume of distribution at steady state in male beagle dog at 0.6 umol/kg, iv
- Format: ADME, organism-based, Canis lupus familiaris
- CONDITION_PARAMETERS: in vivo, read-out: Vdss
MEASURED_METRIC: Vd (L/kg)
Numeric only. Scale: L/kg

### Prompt Entry under review: O=C(N[C@H]1C2CC3CC1C[C@](O)(C3)C2)c1cnc(N[C@H]2CCOC2)nc1C1CCCC1 . Reported Vd?
### Response 0.7
